System: HL60
METHOD DESCRIPTION: MTS cytotoxicity on MDR tumor cells, HL60
Assay type: cell-based
CONDITION SET: Vincristine (VCR) sensitive, 72 hr incubation
ENDPOINT: GI50 (nM)
Answers are plain numbers, in nM.

Look up GI50 of OC[C@H]1OC(n2cnc3c(NN=Cc4ccccn4)ncnc32)[C@H](O)[C@@H]1O (stereo partly shown) [I-9] and report it. 1000

###

Test system: human colon carcinoma HCT-15
METHOD DESCRIPTION: MTS cytotoxicity assay, HCT-15
Format: cell-based
CONDITION SET: 48 h incubation
I'd be grateful if you could share measured GI50 for these entries.

Field: example entries. Status: answers known.
OC[C@H]1OC(n2cnc3c(NN=Cc4ccccc4)ncnc32)[C@H](O)[C@@H]1O (stereo partly shown) : 5.5 µM
OC[C@H]1OC(n2cnc3c(NN=C(c4ccccn4)c4ccccn4)ncnc32)[C@H](O)[C@@H]1O (stereo partly shown) : < 1 µM
OC[C@H]1OC(n2cnc3c(NN=Cc4ccccn4)ncnc32)[C@H](O)[C@@H]1O (stereo partly shown) : < 1 µM

Value sought for every listed compound: GI50.
1. OC[C@H]1OC(n2cnc3c(NN=Cc4ccncc4)ncnc32)[C@H](O)[C@@H]1O (stereo partly shown)
2. OC[C@H]1OC(n2cnc3c(NN=Cc4cccnc4)ncnc32)[C@H](O)[C@@H]1O (stereo partly shown)
3. C[C@@]1(O)[C@@H](CO)OC(n2cnc3c(NN=Cc4ccccn4)ncnc32)[C@@H]1O (stereo partly shown)

71 µM
22 µM
3.9 µM

Look up GI50 of C(=NNc1ncnc2[nH]cnc12)c1ccc[nH]1 and report it. 5.6 µM
